B1: TMEM192 (parent)
chain: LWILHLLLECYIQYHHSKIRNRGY

Variants of: B1
ASSAY_NOTES: protein stability index of a GFP-peptide fusion (GPS, HEK-293T) (PSI 1-6); higher = more stable;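 note: lentivirally expressed fusions sorted by FACS into six bins by GFP to DsRed ratio, PSI derived from sequencing read proportions per bin multiplied by bin number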
EXPERIMENTAL_SETUP: c terminus: a fixed tail appended
Criterion: protein stability index meeting or surpassing 2. Met: Y. Not met: N.

# bool: protein stability index of L4H >= 2
Y

# bool: protein stability index of I3C >= 2
Y

# bool: protein stability index of H15G >= 2
Y

# bool: protein stability index of H5V >= 2
Y

# bool: protein stability index of R20Q >= 2
N

# bool: protein stability index of I3Y >= 2
N

# bool: protein stability index of Y11E >= 2
Y

# bool: protein stability index of L4A >= 2
Y

# bool: protein stability index of L6D >= 2
N

# bool: protein stability index of Y24K >= 2
N

# bool: protein stability index of K18E >= 2
Y

# bool: protein stability index of H15C >= 2
Y

# bool: protein stability index of Y24A >= 2
Y

# bool: protein stability index of I12G >= 2
N

# bool: protein stability index of H15P >= 2
Y

# bool: protein stability index of R22Q >= 2
Y

# bool: protein stability index of L6H >= 2
Y

# bool: protein stability index of E9S >= 2
Y

# bool: protein stability index of C10F >= 2
Y

# bool: protein stability index of E9D >= 2
N

# bool: protein stability index of I3K >= 2
Y

# bool: protein stability index of I3V >= 2
Y

# bool: protein stability index of L6G >= 2
N

# bool: protein stability index of L8T >= 2
Y

# bool: protein stability index of Y14T >= 2
Y

# bool: protein stability index of I12S >= 2
N

# bool: protein stability index of Q13R >= 2
Y

# bool: protein stability index of I12L >= 2
Y

# bool: protein stability index of L8F >= 2
Y

# bool: protein stability index of Y24P >= 2
Y

# bool: protein stability index of R20T >= 2
Y

# bool: protein stability index of Y11M >= 2
Y

# bool: protein stability index of W2N >= 2
Y

# bool: protein stability index of W2M >= 2
Y

# bool: protein stability index of E9C >= 2
Y

# bool: protein stability index of I19T >= 2
N

# bool: protein stability index of W2T >= 2
N

# bool: protein stability index of Y11H >= 2
N

# bool: protein stability index of I19F >= 2
Y

# bool: protein stability index of Y24C >= 2
N

# bool: protein stability index of L4V >= 2
N

# bool: protein stability index of L4R >= 2
Y

# bool: protein stability index of L6A >= 2
Y

# bool: protein stability index of L1I >= 2
Y

# bool: protein stability index of L7F >= 2
N

# bool: protein stability index of N21R >= 2
Y

# bool: protein stability index of S17W >= 2
Y

# bool: protein stability index of C10W >= 2
N

# bool: protein stability index of Y14F >= 2
Y

# bool: protein stability index of Y14H >= 2
Y

# bool: protein stability index of L1V >= 2
Y

# bool: protein stability index of L8S >= 2
Y

# bool: protein stability index of L7A >= 2
Y

# bool: protein stability index of I19N >= 2
N

# bool: protein stability index of H16S >= 2
N

# bool: protein stability index of N21V >= 2
Y

# bool: protein stability index of I12N >= 2
Y

# bool: protein stability index of L7E >= 2
Y

# bool: protein stability index of E9H >= 2
N

# bool: protein stability index of L7Y >= 2
Y

# bool: protein stability index of L6C >= 2
N

# bool: protein stability index of L8D >= 2
Y

# bool: protein stability index of L8Y >= 2
Y

# bool: protein stability index of H15V >= 2
Y

# bool: protein stability index of Y14D >= 2
Y

# bool: protein stability index of I12R >= 2
Y

# bool: protein stability index of Q13F >= 2
Y

# bool: protein stability index of I12F >= 2
Y

# bool: protein stability index of Q13T >= 2
N

# bool: protein stability index of L6S >= 2
N

# bool: protein stability index of R22C >= 2
Y

# bool: protein stability index of G23K >= 2
Y

# bool: protein stability index of E9F >= 2
Y

# bool: protein stability index of Y11K >= 2
N

# bool: protein stability index of L4K >= 2
Y

# bool: protein stability index of G23M >= 2
N

# bool: protein stability index of I19G >= 2
Y

# bool: protein stability index of Q13Y >= 2
N

# bool: protein stability index of Q13G >= 2
N

# bool: protein stability index of Y24R >= 2
Y

# bool: protein stability index of W2G >= 2
Y

# bool: protein stability index of Y11F >= 2
Y

# bool: protein stability index of Y24S >= 2
Y
